tested on: 293T cells; test: Fluorescent detection of Fluc-mRNA (cell transfection efficiency of LNP formulations); format: cell-based; settings: RLU of YK-101 / RLU of named substance
# Multiples (YK-101) >= 20 gives y, anything below gives n

{"COMPOUND": "CCCCCCCCCCOC(=O)CCCN(CCCCCC(=O)OCC(CCCCCCCC)CCCCCCCC)CCOC(=O)CCCN(C)C", "CLASS": "y"}
{"COMPOUND": "CCCCCCCCCCOC(=O)CCCN(CCCCCC(=O)OCC(CCCCCCCC)CCCCCCCC)CCOCCOCCO", "CLASS": "n"}
{"COMPOUND": "CCCCCCC(CCCCCC)CCOC(=O)CCCCCCCN(CCO)CCCCCCCC(=O)OCCC(CCCCCC)CCCCCC [Compound 23, reference compound]", "CLASS": "n"}
{"COMPOUND": "CCCCCCCCCCCCC(O)CN(C)CCCCCC(=O)OCC(CCCCCC)CCCCCCCC (centres unmarked) [HHMA, reference compound]", "CLASS": "n"}

Here is another compound to look at.
Could you verify whether the entry CCCCCCCCC(CCCCCCCC)COC(=O)CCCCCN(CCO)CCCCCC(=O)OCCSCCCC shows Multiples (YK-101) of no less than 20?
y

###

test system: 293T cells; assay: Fluorescent detection of Fluc-mRNA (cell transfection efficiency of LNP formulations); format: cell-based; conditions: RLU of YK-107 / RLU of named substance
PROPERTY LABEL: Multiples (YK-107)
Respond with the number and no other words.

Example entries and their recorded answers appear below.
{"COMPOUND": "CCCCCCCCCCOC(=O)CCCN(CCO)CCCCCC(=O)OCCC(CCCCCC)CCCCCC [YK-101]", "Multiples (YK-107)": 1.10}
{"COMPOUND": "CCCCCCCCCCCOC(=O)CCCCCN(CCO)CCCCCCCC(=O)OC(CCCCCCCC)CCCCCCCC [SM-102, reference compound]", "Multiples (YK-107)": 14.58}
{"COMPOUND": "CCCCCCCCCCOC(=O)CCCN(CCCCCC(=O)OCCC(CCCCCC)CCCCCC)C[C@H](O)CO [YK-116]", "Multiples (YK-107)": 16.92}
{"COMPOUND": "CCCCCCCCCCOC(=O)CCCN(CCCCCC(=O)OCCC(CCCCCC)CCCCCC)CCOCCO [YK-123]", "Multiples (YK-107)": 27.68}
{"COMPOUND": "CCCCCCC(CCCCCC)CCOC(=O)CCCCCCCN(CCO)CCCCCCCC(=O)OCCC(CCCCCC)CCCCCC [Compound 23, reference compound]", "Multiples (YK-107)": 17.32}

For the next question, use this compound.
Form field - read-out: Multiples (YK-107); system: 293T cells; submitted item: CCCCCCCCCC(=O)OCCCCN(CCO)CCCCCC(=O)OCC(CCCCCCCC)CCCCCCCC [YK-106]
13.73

###

test: Determination of particle size and polydispersity index (PDI) of lipid nanoparticles by dynamic light scattering; assay type: physicochemical; conditions: LNP formulation of named cationic lipid/DSPC/cholesterol/DMG-PEG2000 49:10:39.5:1.5; 90° scattering angle, 25° C
# reported Particle size (nm); entries follow
Quick note: give the figure in nm, leave out the unit.

Example entries and their recorded answers appear below.
{"COMPOUND": "CCCCCCCCCCOC(=O)CCCN(CCCCCC(=O)OCC(CCCCCCCC)CCCCCCCC)CCOCCO", "Particle size (nm)": 216}
{"COMPOUND": "CCCCCCC(CCCCCC)CCOC(=O)CCCCCCCN(CCO)CCCCCCCC(=O)OCCC(CCCCCC)CCCCCC [Compound 23, reference compound]", "Particle size (nm)": 140}

Dear colleague, I am looking for the recorded Particle size (nm) of the following compound: CCCCCCCCCCOC(=O)CCCN(CCO)CCCCCC(=O)OCC(CCCCCCCC)CCCCCCCC [YK-009, reference compound]
205

How about CCCCCCCCCCOC(=O)CCCN(CCO)CCCCCCOC(=O)CC(CCCCCC)CCCCCC ?
109

How about CCCCCCCCCCOC(=O)CCCCCN(CCO)CCCCCC(=O)OCCC(CCCCCC)CCCCCC ?
179

How about CCCCCCCCCC(=O)OCCCCN(CCO)CCCCCC(=O)OCC(CCCCCCCC)CCCCCCCC ?
140

How about CCCCCCCCCCCCC(O)CN(C)CCCCCC(=O)OCC(CCCCCC)CCCCCCCC (centres unmarked) [HHMA, reference compound] ?
138

How about CCCCCCCCCCOC(=O)CCCN(CCCCCC(=O)OCCC(CCCCCC)CCCCCC)CCOCCOCCO ?
192

###

assay: Determination of particle size and polydispersity index (PDI) of lipid nanoparticles by dynamic light scattering; format: physicochemical; settings: LNP formulation of named cationic lipid/DSPC/cholesterol/DMG-PEG2000 49:10:39.5:1.5
PROPERTY LABEL: PDI(%)
Quick note: give the figure in %, leave out the unit.

{"MOLECULE": "CCCCCCCCCCOC(=O)CCCN(CCO)CCCCCCOC(=O)CC(CCCCCC)CCCCCC [YK-105]", "PROPERTY LABEL": "PDI(%)", "REPORTED RESULT": 18.6}
{"MOLECULE": "CCCCCCCCCC(=O)OCCCCN(CCO)CCCCCC(=O)OCC(CCCCCCCC)CCCCCCCC [YK-106]", "PROPERTY LABEL": "PDI(%)", "REPORTED RESULT": 14.4}

Dear colleague, I am looking for the recorded PDI(%) of the following molecule: CCCCCCCCCCOC(=O)CCCN(CCCCCC(=O)OCCC(CCCCCC)CCCCCC)C[C@@H](O)CO [YK-115]
21.8

How about CCCCCCCCCCCCC(O)CN(C)CCCCCC(=O)OCC(CCCCCC)CCCCCCCC (stereo not shown) [HHMA, reference compound] ?
12.2

###

tested on: BALB/C mice; assay: In vivo imaging of Fluc-mRNA expression in mice delivered by LNP formulations; details: 24 h
# reported average radiation intensity of YK-101, times that of named substance; entries follow
Quick note: give the figure in times, leave out the unit.

{"COMPOUND": "CCCCCCCCC(CCCCCCCC)OC(=O)CCCCCCCN(CCO)CCCCCCCC(=O)OCCC(CCCCCC)CCCCCC [Compound 21, reference compound]", "REPORTED RESULT": 9.6}

Dear colleague, I am looking for the recorded average radiation intensity of YK-101, times that of named substance of the following compound: CCCCCCCCC(CCCCCC)C(=O)OCCCCCCN(CCCCO)CCCCCCOC(=O)C(CCCCCC)CCCCCCCC (stereo not shown) [ALC-0315, reference compound]
5.9

How about CCCCCCCCCCOC(=O)CCCN(CCO)CCCCC(=O)OCCC(CCCCCC)CCCCCC ?
9.3

How about CCCCCCC(CCCCCC)CCOC(=O)CCCCCCCN(CCO)CCCCCCCC(=O)OCCC(CCCCCC)CCCCCC [Compound 23, reference compound] ?
9.4

How about CCCCCCCCCCOC(=O)CCCN(CCCCCC(=O)OCCC(CCCCCC)CCCCCC)CCOCCO ?
18.0

How about CCCCCCCCCCOC(=O)CCCN(CCCCCC(=O)OCCC(CCCCCC)CCCCCC)CC(O)CO (stereo not shown) ?
11.3

How about CCCCCCCCCCCCC(O)CN(C)CCCCCC(=O)OCC(CCCCCC)CCCCCCCC (stereo not shown) [HHMA, reference compound] ?
9.1

###

system: 293T cells; assay: Cell survival rate determination (CCK-8); assay type: cell-based; conditions: cell survival rate of YK-101 minus that of named substance
# reported cell survival rate lower than that of YK-101; entries follow
Quick note: give the figure in %, leave out the unit.

Example entries and their recorded answers appear below.
{"COMPOUND": "CCCCCCCCCCOC(=O)CCCN(CCCCCC(=O)OCCC(CCCCCC)CCCCCC)C[C@H](O)CO", "U": "%", "REPORTED RESULT": 22.16}
{"COMPOUND": "CCCCCCCCCCCOC(=O)CCCCCN(CCO)CCCCCCCC(=O)OC(CCCCCCCC)CCCCCCCC [SM-102, reference compound]", "U": "%", "REPORTED RESULT": 21.95}
{"COMPOUND": "CCCCCCCCCCOC(=O)CCCCCN(CCO)CCCCCC(=O)OCCC(CCCCCC)CCCCCC", "U": "%", "REPORTED RESULT": 44.87}
{"COMPOUND": "CCCCCCCCC(CCCCCC)C(=O)OCCCCCCN(CCCCO)CCCCCCOC(=O)C(CCCCCC)CCCCCCCC (stereo not shown) [ALC-0315, reference compound]", "U": "%", "REPORTED RESULT": 39.10}
{"COMPOUND": "CCCCCCCCCCOC(=O)CCCN(CCCCCC(=O)OCCC(CCCCCC)CCCCCC)C1CCCC1O (stereo not shown)", "U": "%", "REPORTED RESULT": 16.69}
{"COMPOUND": "CCCCCCCCCCOC(=O)CCCN(CCCCCC(=O)OCCC(CCCCCC)CCCCCC)CCOC(=O)CCCN(C)C", "U": "%", "REPORTED RESULT": 54.73}

Form field - read-out: cell survival rate lower than that of YK-101; system: 293T cells; submitted item: CCCCCCCCCCCCC(O)CN(C)CCCCCC(=O)OCC(CCCCCC)CCCCCCCC (stereo not shown) [HHMA, reference compound]
22.35
